ASSAY EXPLANATION: Cytotoxicity under 229E CPE assay conditions without virus infection (CellTiter Glo)
MEASURE: CC50

Q. Report CC50 for CC(C)CC(NC(=O)c1nc2ncccc2[nH]1)C(=O)NC(C#N)CC1CCNC1=O (single isomer, unassigned) [130 (Isomer 1)] please.
A. > 30 µM

* * *

TGT: 229E mPRO (Human coronavirus 229E (HCoV-229E))
Sequence (P0C6X1 2966-3267 limits assumed): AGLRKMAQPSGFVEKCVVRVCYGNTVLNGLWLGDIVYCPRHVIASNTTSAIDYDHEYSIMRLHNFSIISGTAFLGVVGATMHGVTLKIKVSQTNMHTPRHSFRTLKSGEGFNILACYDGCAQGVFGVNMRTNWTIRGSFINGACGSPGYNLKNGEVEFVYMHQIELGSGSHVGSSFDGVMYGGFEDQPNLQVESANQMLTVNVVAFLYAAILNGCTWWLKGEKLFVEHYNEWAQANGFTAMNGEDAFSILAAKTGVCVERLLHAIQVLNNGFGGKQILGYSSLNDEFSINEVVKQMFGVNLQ
ASSAY EXPLANATION: 229E mPRO enzymatic assay
Format: biochemical, Human Coronavirus (HCov) 229E
CONDITION INFO: read-out: 229E mPRO IC50
pIC50: −log10 of the molar value.
pIC50 listing for selected compounds.

{"columns": ["COMPOUND", "pIC50"],
 "data": [
  ["COc1cccc2[nH]c(C(=O)N[C@@H](CC3CC3)C(=O)N[C@@]3(C#N)CCc4cccnc4C3)cc12 [Compound 279]", "< 4.52"],
  ["N#C[C@H](C[C@@H]1CCNC1=O)NC(=O)[C@@H]1CCc2ccc(NCC(=O)Oc3ccccc3)c(=O)n21 [Compound 483]", "< 4.52"],
  ["CCCNC(=O)OC(C#N)[C@H](C[C@@H]1CCNC1=O)NC(=O)[C@H](CC(C)C)NC(=O)c1cc2c(OC)cccc2[nH]1 (stereo partly drawn) [Compound 581]", "< 4.52"],
  ["COc1cccc2[nH]c(C(=O)N[C@H](C(=O)N[C@H](C#N)C[C@@H]3CCNC3=O)[C@@H]3Cc4ccccc4O3)cc12 [Compound 147]", "< 4.52"]
]}

Q. Report pIC50 for COc1cccc2[nH]c(C(=O)N[C@@H](CC(C)C)C(=O)N[C@H](C#N)Cc3ccccn3)cc12 [Compound 439] please.
A. < 4.52

Q. Report pIC50 for CCO[C@@H]1C[C@@H](C(=O)N[C@H](C#N)C[C@@H]2CCNC2=O)N(C(=O)c2cc3c(OC)cccc3[nH]2)C1 [Compound 535] please.
A. < 4.52

Q. Report pIC50 for COc1cccc2[nH]c(C(=O)N[C@@H](CC(C)C)C(=O)N[C@H](C#N)Cc3n[nH]c4ccccc34)cc12 (mixture of isomers) [Compound 245] please.
A. < 4.52

Q. Report pIC50 for COc1cccc2[nH]c(C(=O)N[C@@H](Cc3cccc(Cl)c3)C(=O)N[C@H](C#N)C[C@@H]3CCNC3=O)cc12 [Compound 153] please.
A. 4.52 to 5.00

Q. Report pIC50 for CCCOc1cccc2[nH]c(C(=O)N[C@@H](CC(C)C)C(=O)N[C@H](C#N)C[C@@H]3CCNC3=O)cc12 [Compound 379] please.
A. > 4.66

Q. Report pIC50 for CC(C)C[C@H](NC(=O)/C=C/c1ccc(Cl)cc1F)C(=O)N[C@H](C#N)C[C@@H]1CCNC1=O [Compound 598] please.
A. 5.00 to 5.70

Q. Report pIC50 for N#C[C@H](C[C@@H]1CCNC1=O)NC(=O)[C@H](CC1CC1)N1CCC2(CCCN2)C1=O (stereo partly drawn) [Compound 471] please.
A. 4.52 to 5.00

Just for reference, patent US11124497B1 is where these values come from.
